# Test system: carrageenan-induced rat paw oedema
# assay.notes: Carrageenan-induced rat paw oedema
# Type: in vivo
# cond: ip, i.p. 0.15 mmol/kg, 3.5 h post administration, vs controls, read-out: % Oedema Reduction
readout.kind: inhibition in vivo at 150 µmol/kg (%)
Answer with a number only, understood to be in %.

1. COc1ccc2c(c1)c(CC(=O)OC1N=C(c3ccccc3Cl)c3cc(Cl)ccc3NC1=O)c(C)n2C(=O)c1ccc(Cl)cc1 (stereo not drawn)    67
2. CC(C(=O)OC1N=C(c2ccccc2Cl)c2cc(Cl)ccc2NC1=O)c1cccc(C(=O)c2ccccc2)c1 (stereo not drawn)    65

Ask: For the record O=C(CCCCC1CCSS1)OC1N=C(c2ccccc2Cl)c2cc(Cl)ccc2NC1=O (stereo not drawn) , what value of inhibition in vivo at 150 µmol/kg is listed for carrageenan-induced rat paw oedema?
Reply: 39

Ask: For the record Cc1c(C)c2c(c(C)c1O)CCC(C)(C(=O)OC1N=C(c3ccccc3Cl)c3cc(Cl)ccc3NC1=O)O2 (stereo not drawn) , what value of inhibition in vivo at 150 µmol/kg is listed for carrageenan-induced rat paw oedema?
Reply: 56

Ask: For the record Cc1c(Cl)cccc1Nc1ccccc1C(=O)O [Tolfenamic acid, reference compound] , what value of inhibition in vivo at 150 µmol/kg is listed for carrageenan-induced rat paw oedema?
Reply: 24
